Target: human GABAA receptor containing α4 subunit (BZ site)
Settings: read-out: Ki α4; second independent set of experiments
pKi: −log10 of the molar value.
PARAMETER MEASURED: pKi

Measured pKi, C#Cc1ccc2c(c1)C(c1ccccn1)=NCc1c(C(=O)OCC)ncn1-2 [SH-053-2'N] : < 5.30

###

Target: human GABAA receptor containing α6 subunit (BZ site) (Homo sapiens, UniProt P18507+Q16445)
Experiment: Competition binding assay with [3H]flunitrazepam
Details: read-out: Ki α6, transfected HEK 293T, duplicate
PARAMETER MEASURED: Ki

C#Cc1ccc2c(c1)C(c1ccccc1F)=NC(C)c1c(C(=O)OCC)ncn1-2 (stereo not shown) [SH-053-S-CH3-2'F] tested on human GABAA receptor containing α6 subunit (BZ site) (Homo sapiens, UniProt P18507+Q16445) gave Ki: > 5 µM

###

Target: human GABAA receptor containing α5 subunit (BZ site) (Homo sapiens, UniProt P18507+P31644)
Experiment: Competition binding assay with [3H]flunitrazepam
Conditions: read-out: Ki α5; [3H]flunitrazepam, transfected HEK 293T, duplicate
PARAMETER MEASURED: Ki

Measured Ki, Cc1ccc(-c2nc3ccc(C)cn3c2CC(=O)N(C)C)cc1 [zolpidem] : > 10 µM
